Give MIC Streptococcus agalactiae (GC 4564) for every item shown.
- Test system: Streptococcus sp.
- Method description: in vitro antibacterial evaluation, MIC by broth dilution
- Type: cell-based
- Condition info: broth dilution, 18 hours at 35° C.
- From the text: Methods for in vitro Antibacterial Evaluation (Table 1) […]
Give bare numbers, in mg/L.

Molecule	MIC Streptococcus agalactiae (GC 4564) / mg/L
CC(c1ccccc1)C1NC(=O)CNC(=O)C(CO)NC(=O)C(C(O)C2CNC(=N)N2C2OC(CO)C(O)C(O)C2O)NC(=O)C(C(O)C2CNC(=N)N2)NC(=O)C(Cc2ccc(OC3OC(CO)C(OC4OC5COC6(CCC(C(C)(C)C)CC6)OC5C(O)C4O)C(O)C3O)cc2)NC1=O (stereo not shown)	0.12

Lab note: CC(c1ccccc1)C1NC(=O)CNC(=O)C(CO)NC(=O)C(C(O)C2CNC(=N)N2C2OC(CO)C(O)C(O)C2O)NC(=O)C(C(O)C2CNC(=N)N2)NC(=O)C(Cc2ccc(OC3OC(CO)C(OC4OC(COCC=Cc5ccc(N(C)C)cc5)C(O)C(O)C4O)C(O)C3O)cc2)NC1=O (stereo not shown) gave MIC Streptococcus agalactiae (GC 4564) of 32
